# TARGET_UNDER_TEST: UniProt:P43116
# Sequence (P43116 whole entry): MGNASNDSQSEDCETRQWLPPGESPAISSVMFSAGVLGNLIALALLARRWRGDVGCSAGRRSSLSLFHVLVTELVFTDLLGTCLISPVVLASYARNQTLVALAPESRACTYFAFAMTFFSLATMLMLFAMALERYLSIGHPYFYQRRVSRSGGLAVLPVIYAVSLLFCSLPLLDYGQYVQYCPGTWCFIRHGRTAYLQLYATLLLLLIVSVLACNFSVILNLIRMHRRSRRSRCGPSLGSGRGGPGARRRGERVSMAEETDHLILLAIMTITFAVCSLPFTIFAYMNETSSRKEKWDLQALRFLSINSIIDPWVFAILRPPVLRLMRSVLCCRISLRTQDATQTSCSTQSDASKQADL
OBSERVED_PROPERTY: pKd
On this scale, pKd is minus log10 of a concentration expressed in M (mol/L).

Provide pKd value for the following compound: CC(C)Oc1ccc2c(=O)c3cc(C(=O)O)ccc3oc2c1
5.60

* * *

OBSERVED_PROPERTY: Kd (nM)
Please reply with the bare figure in nM and do not write the unit itself.

Determine reported Kd for CCOc1c2c(c(OCC)c3ccccc13)C(=O)N(c1ccc(CC(=O)NS(=O)(=O)c3ccccc3)cc1)C2 [GW627368X] ; test system: EP4 receptors (Homo sapiens, UniProt P35408).
Sequence (P35408 whole entry): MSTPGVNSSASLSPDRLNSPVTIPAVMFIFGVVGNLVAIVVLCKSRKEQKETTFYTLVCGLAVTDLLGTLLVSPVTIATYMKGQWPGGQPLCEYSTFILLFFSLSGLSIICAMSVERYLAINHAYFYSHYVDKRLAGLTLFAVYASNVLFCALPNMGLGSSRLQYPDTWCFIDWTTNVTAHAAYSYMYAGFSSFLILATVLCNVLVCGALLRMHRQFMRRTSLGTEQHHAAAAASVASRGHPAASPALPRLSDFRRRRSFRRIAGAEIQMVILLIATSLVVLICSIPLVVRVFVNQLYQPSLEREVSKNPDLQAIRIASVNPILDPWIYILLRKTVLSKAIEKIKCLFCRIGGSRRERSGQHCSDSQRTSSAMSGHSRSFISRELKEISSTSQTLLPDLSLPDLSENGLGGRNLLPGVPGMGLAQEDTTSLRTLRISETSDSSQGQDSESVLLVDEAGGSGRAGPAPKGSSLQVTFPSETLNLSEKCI
6.31
